Reference for the values: patent US10221163B2

# system_under_test: VIM-1 (Pseudomonas aeruginosa (strain ATCC 15692 / DSM 22644 / CIP 104116 / JCM 14847 / LMG 12228 / 1C / PRS 101 / PAO1))
# protocol: biochemical
# condition_set: fluorescence assay, CCF2-FA substrate, 30 pM enzyme, 2 hours at 25° C.; read-out: VIM-1 IC50
readout: IC50 (nM)
State just the number; it will be interpreted in nM.

*Q* Give the measured IC50 of NCCNS(=O)(=O)c1ccc(-c2ccnc(N)c2)c(-c2nn[nH]n2)c1S(N)(=O)=O [Example 400] .
*A* 0.244

*Q* Moving on to the next compound: Nc1nc2cccc(-c3ccc(S(N)(=O)=O)c(S(N)(=O)=O)c3-c3nn[nH]n3)c2[nH]1 [Example 1]
*A* 0.264

*Q* Moving on to the next compound: Nc1nc2c(-c3ccc(S(=O)(=O)N4CC[C@@H](F)[C@H](N)C4)c(S(N)(=O)=O)c3-c3nn[nH]n3)cccc2[nH]1 [Example 205]
*A* 3.63

*Q* Moving on to the next compound: NS(=O)(=O)c1c(S(=O)(=O)N[C@@H]2CCNC2)ccc(-c2cccc3[nH]cnc23)c1-c1nn[nH]n1 [Example 193]
*A* 0.113

* * *

Exercise: state measured pIC50 for each of the compounds provided.
# system_under_test: UniProt P52699
# protocol: biochemical
# Type: biochemical
# condition_set: fluorescence assay, CCF2-FA substrate, 2 pM enzyme, 2 hours at 25° C.; read-out: IMP-1 IC50
Remember, pIC50 is on a log scale: it is -log10 of the molar concentration.

*Q* Give the measured pIC50 of Nc1nc2c(-c3ccc(S(=O)(=O)N4CCC(N)CC4)c(S(N)(=O)=O)c3-c3nn[nH]n3)cccc2s1 .
*A* 9.31

*Q* Moving on to the next compound: CN1CC(N(C)S(=O)(=O)c2ccc(-c3cccc4sc(N)nc34)c(-c3nnn[nH]3)c2S(N)(=O)=O)C1.O=C(O)C(F)(F)F [Example 107, 2,2,2-trifluoroacetate]
*A* 8.85

*Q* Moving on to the next compound: NS(=O)(=O)c1c(S(=O)(=O)N[C@@H]2CCNC2)ccc(-c2cccc(Nc3nc(CO)cs3)c2)c1-c1nn[nH]n1
*A* 9.87

*Q* Moving on to the next compound: CN1CCOC(CNS(=O)(=O)c2ccc(-c3cccc4sc(N)nc34)c(-c3nnn[nH]3)c2S(N)(=O)=O)C1 (stereo not drawn)
*A* 9.37

*Q* Moving on to the next compound: NCCNS(=O)(=O)c1ccc(-c2cccc3[nH]c(CCN)nc23)c(-c2nn[nH]n2)c1S(N)(=O)=O
*A* 8.65

*Q* Moving on to the next compound: NCC(CN)NS(=O)(=O)c1ccc(-c2cccc(-c3nc[nH]n3)c2)c(-c2nn[nH]n2)c1S(N)(=O)=O
*A* 9.78

* * *

# Tested on: Serratia marcescens expressing IMP-1 (CL5741)
# Type: cell-based
# condition_set: IMP-1 strain CL5741, with imipenem 1 μg/ml, 95% inhibition of growth
readout: Serratia marcescens MITC95 (µM)
State just the number; it will be interpreted in µM.

*Q* Give the measured Serratia marcescens MITC95 of Nc1nc(-c2cccc(-c3ccc(S(=O)(=O)N[C@H]4CNC[C@H]4N)c(S(N)(=O)=O)c3-c3nn[nH]n3)c2)c[nH]1 .
*A* 3.125

*Q* Moving on to the next molecule: NCC(CN)NS(=O)(=O)c1ccc(-c2cccc3[nH]nnc23)c(-c2nn[nH]n2)c1S(N)(=O)=O
*A* 1.563

*Q* Moving on to the next molecule: Nc1nc2c(-c3ccc(S(=O)(=O)N[C@@H]4CNC[C@H]4N)c(S(N)(=O)=O)c3-c3nn[nH]n3)cccc2[nH]1
*A* 1.563

*Q* Moving on to the next molecule: C[C@H](CN)NS(=O)(=O)c1ccc(-c2cccc3c2nc(N)n3C)c(-c2nn[nH]n2)c1S(N)(=O)=O
*A* 1.563

* * *

Exercise: state measured pIC50 for each of the compounds provided.
# system_under_test: IMP-1 (Serratia marcescens)
# Sequence (P52699 whole entry, looked up, species assumed): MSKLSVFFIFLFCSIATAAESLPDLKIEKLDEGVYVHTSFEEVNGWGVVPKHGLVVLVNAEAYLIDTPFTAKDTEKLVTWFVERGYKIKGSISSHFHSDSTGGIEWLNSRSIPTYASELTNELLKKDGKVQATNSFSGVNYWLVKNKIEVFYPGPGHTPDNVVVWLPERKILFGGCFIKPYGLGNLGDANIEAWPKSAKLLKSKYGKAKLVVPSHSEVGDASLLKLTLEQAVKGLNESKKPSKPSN
# protocol: biochemical
# Type: biochemical
# condition_set: fluorescence assay, CCF2-FA substrate, 2 pM enzyme, 2 hours at 25° C.; read-out: IMP-1 IC50
Remember, pIC50 is on a log scale: it is -log10 of the molar concentration.

*Q* Give the measured pIC50 of Nc1nc2c(-c3ccc(S(=O)(=O)N[C@H]4CCNC4)c(S(N)(=O)=O)c3-c3nn[nH]n3)cccc2[nH]1 .
*A* 9.13

*Q* Moving on to the next compound: NCC(CN)NS(=O)(=O)c1ccc(-c2ccnc(-c3cnc(N)[nH]3)c2)c(-c2nnn[nH]2)c1S(N)(=O)=O
*A* 8.62

*Q* Moving on to the next compound: NS(=O)(=O)c1c(S(=O)(=O)N[C@@H]2CCNC2)ccc(-c2cccc3c2OC(F)(F)O3)c1-c1nnn[nH]1
*A* 8.74

*Q* Moving on to the next compound: NCCNS(=O)(=O)c1ccc(-c2cccc(SCC(N)CO)c2)c(-c2nn[nH]n2)c1S(N)(=O)=O (stereo not drawn)
*A* 9.34

*Q* Moving on to the next compound: Nc1nc2c(-c3ccc(S(=O)(=O)N[C@@H]4CCNC4)c(S(N)(=O)=O)c3-c3nn[nH]n3)cc(I)cc2[nH]1
*A* 9.85

*Q* Moving on to the next compound: NC[C@@H]1CCN(S(=O)(=O)c2ccc(-c3cccc4sc(N)nc34)c(-c3nnn[nH]3)c2S(N)(=O)=O)C1
*A* 8.64

*Q* Moving on to the next compound: C[C@H](CN)NS(=O)(=O)c1ccc(-c2cccnc2NCCN)c(-c2nn[nH]n2)c1S(N)(=O)=O
*A* 8.33

*Q* Moving on to the next compound: Nc1nc2c(-c3ccc(S(=O)(=O)NCCO)c(S(N)(=O)=O)c3-c3nn[nH]n3)cccc2s1
*A* 9.54

*Q* Moving on to the next compound: CN(C)CCNS(=O)(=O)c1ccc(-c2cccc3sc(N)nc23)c(-c2nnn[nH]2)c1S(N)(=O)=O
*A* 9.38

*Q* Moving on to the next compound: NCCNc1cc(-c2ccc(S(=O)(=O)NCCN)c(S(N)(=O)=O)c2-c2nn[nH]n2)ccn1
*A* 8.42

*Q* Moving on to the next compound: NCCNS(=O)(=O)c1ccc(-c2cccc3[nH]c([C@@H](N)CO)nc23)c(-c2nn[nH]n2)c1S(N)(=O)=O
*A* 8.64

*Q* Moving on to the next compound: C[C@H](CN)NS(=O)(=O)c1ccc(-c2cccc3[nH]c(N)nc23)c(-c2nn[nH]n2)c1S(N)(=O)=O
*A* 9.64

*Q* Moving on to the next compound: CC(C)(N)CNS(=O)(=O)c1ccc(-c2cccc3sc(N)nc23)c(-c2nnn[nH]2)c1S(N)(=O)=O
*A* 9.58

*Q* Moving on to the next compound: Nc1nc2c(-c3ccc(S(=O)(=O)NC4C[C@@H]5CN[C@H]4C5)c(S(N)(=O)=O)c3-c3nnn[nH]3)cccc2s1.O=CO (stereo partly drawn) [Example 119, formate salt]
*A* 9.65

*Q* Moving on to the next compound: Nc1ccc(-c2ccc(S(=O)(=O)NC3CC(N)C3)c(S(N)(=O)=O)c2-c2nn[nH]n2)cn1 (stereo not drawn)
*A* 9.48

*Q* Moving on to the next compound: CNc1ccc(-c2ccc(S(=O)(=O)N[C@@H]3CCNC3)c(S(N)(=O)=O)c2-c2nn[nH]n2)cn1
*A* 9.80

*Q* Moving on to the next compound: Nc1nc2c(-c3ccc(S(=O)(=O)NCCC(N)C(F)(F)F)c(S(N)(=O)=O)c3-c3nnn[nH]3)cccc2s1 (stereo not drawn)
*A* 9.38

*Q* Moving on to the next compound: C[C@H](N)CC(=O)NS(=O)(=O)c1ccc(-c2cccc3[nH]c(N)nc23)c(-c2nn[nH]n2)c1S(N)(=O)=O
*A* 8.51

*Q* Moving on to the next compound: Nc1nc2c(-c3ccc(S(=O)(=O)N[C@H]4CN[C@@H](CO)C4)c(S(N)(=O)=O)c3-c3nnn[nH]3)cccc2s1
*A* 9.72

*Q* Moving on to the next compound: Nc1nc2c(-c3ccc(S(=O)(=O)NC[C@@H]4CNCCN4)c(S(N)(=O)=O)c3-c3nn[nH]n3)cccc2[nH]1
*A* 9.18

*Q* Moving on to the next compound: Nc1ccc(-c2ccc(S(=O)(=O)NC[C@H]3CCNC3)c(S(N)(=O)=O)c2-c2nn[nH]n2)cn1
*A* 9.60

*Q* Moving on to the next compound: Nc1nc2c(-c3ccc(S(=O)(=O)N[C@H]4CN[C@@H](CO)C4)c(S(N)(=O)=O)c3-c3nnn[nH]3)cccc2[nH]1
*A* 9.03

*Q* Moving on to the next compound: NC[C@@H](N)CNS(=O)(=O)c1ccc(-c2cnc(N)s2)c(-c2nn[nH]n2)c1S(N)(=O)=O
*A* 8.93

*Q* Moving on to the next compound: CN(C1CNC1)S(=O)(=O)c1ccc(-c2cccc3[nH]c(N)nc23)c(-c2nn[nH]n2)c1S(N)(=O)=O
*A* 8.55

*Q* Moving on to the next compound: NCCNS(=O)(=O)c1ccc(-c2cccc3[nH]c([C@@H]4C[C@@H](O)CN4)nc23)c(-c2nn[nH]n2)c1S(N)(=O)=O
*A* 8.80

*Q* Moving on to the next compound: CN([C@H]1CCNC1)S(=O)(=O)c1ccc(-c2cccc3[nH]c(N)nc23)c(-c2nn[nH]n2)c1S(N)(=O)=O
*A* 8.18

*Q* Moving on to the next compound: C[C@H](CN)NS(=O)(=O)c1ccc(-c2cccc3[nH]nnc23)c(-c2nn[nH]n2)c1S(N)(=O)=O
*A* 9.92
